Sourced from paper PMC8648660

Biological target: sigma-2 receptors (Homo sapiens)
Construct: endogenous in cells; host or cells: MiaPaCa2, PANC-1, AsPC1 (whole cells)
Test: Flow cytometry displacement of sigma-2 fluorescent ligand NO1 in human pancreatic cancer cells
Format: binding
Conditions: Flow Cytometry, IC50 ± SEM, Sigma-2, PANC-1, PANC-1 cells, displacement of NO1
quantity measured: IC50 (nM)
Enter your answer as a number in nM; do not include the unit.

IC50 measured on CN(C)C(=S)N/N=C1\C(=O)N(CCCCN2CCC3(CC2)OCc2ccccc23)c2ccccc21 = 11.4

* * *

Biological target: sigma-2 receptors (Mus musculus, UniProt Q8VD00)
Construct: endogenous in cells
Sequence (Q8VD00 1-176): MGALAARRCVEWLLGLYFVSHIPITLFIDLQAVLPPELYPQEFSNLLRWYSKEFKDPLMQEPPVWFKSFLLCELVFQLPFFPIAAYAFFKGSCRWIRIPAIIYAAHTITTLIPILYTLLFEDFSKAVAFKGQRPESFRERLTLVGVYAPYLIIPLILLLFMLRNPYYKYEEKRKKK
Test: Flow cytometry displacement of sigma-2 fluorescent ligand NO1 in murine KP02 cells
quantity measured: pIC50
In plain terms, pIC50 is the concentration in mol/L turned into minus its base-10 logarithm.

pIC50 measured on CN(C)C(=S)N/N=C1\C(=O)N(CCCCN2CCC3(CC2)OCc2ccccc23)c2ccccc21 [FA4] = 7.94

* * *

System: BxPC3 cells
Experiment: Cell viability MTT assay 48 h
Type: cell-based
Details: Homo sapiens, BXPC-3; MTT 48 h; read-out: Activity EC50 ± SEM, BxPC3
quantity measured: pEC50
In plain terms, pEC50 is the concentration in mol/L turned into minus its base-10 logarithm.

pEC50 measured on CN(C)C(=S)N/N=C1\C(=O)N(CCCCN2CCC3(CC2)OCc2ccccc23)c2ccccc21 = 5.87

* * *

Biological target: sigma-2 receptors (Homo sapiens, UniProt Q5BJF2)
Construct: endogenous in cells; host or cells: MiaPaCa2, PANC-1, AsPC1 (whole cells)
Sequence (Q5BJF2 whole entry): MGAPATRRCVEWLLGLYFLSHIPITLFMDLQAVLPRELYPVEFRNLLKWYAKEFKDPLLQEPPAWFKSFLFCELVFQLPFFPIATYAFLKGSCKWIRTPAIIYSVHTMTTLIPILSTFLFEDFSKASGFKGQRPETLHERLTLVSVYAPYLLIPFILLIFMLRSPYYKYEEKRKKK
Test: Flow cytometry displacement of sigma-2 fluorescent ligand NO1 in human pancreatic cancer cells
Assay type: binding
Settings: Flow Cytometry, IC50 ± SEM, Sigma-2, MiaPaCa2, MiaPaCa2 cells, displacement of NO1
quantity measured: IC50

IC50 measured on CN(C)C(=S)N/N=C1\C(=O)N(CCCCN2CCC3(CC2)OCc2ccccc23)c2ccccc21 = 9.13 nM

* * *

Test system: AspC1 cells
Assay: Cell viability MTT assay 48 h
Type: cell-based
Details: Homo sapiens, MTT 48 h, read-out: Activity EC50 ± SEM, AspC1
quantity measured: EC50 (nM)
Enter your answer as a number in nM; do not include the unit.

# value of EC50, AspC1 cells, item CN(C)C(=S)N/N=C1\C(=O)N(CCCCN2CCC3(CC2)OCc2ccccc23)c2ccccc21 [FA4] = 1390

* * *

Molecular target: sigma-1 receptors (Homo sapiens)
Construct: endogenous in cells; host or cells: PANC-1, MiaPaCa2 (whole cells)
Assay: Flow cytometry displacement of sigma-1 fluorescent ligand LM1 in human pancreatic cancer cells
Format: binding
Details: Flow Cytometry, IC50 ± SEM, Sigma-1, MiaPaCa2, MiaPaCa2 cells, displacement of LM1
quantity measured: IC50 (nM)
Enter your answer as a number in nM; do not include the unit.

IC50 measured on CN(C)C(=S)N/N=C1\C(=O)N(CCCCN2CCC3(CC2)OCc2ccccc23)c2ccccc21 = 53.2

* * *

Target: sigma-1 receptors (Homo sapiens, UniProt Q99720)
Construct: endogenous in cells; host or cells: PANC-1, MiaPaCa2 (whole cells)
Sequence (Q99720 whole entry): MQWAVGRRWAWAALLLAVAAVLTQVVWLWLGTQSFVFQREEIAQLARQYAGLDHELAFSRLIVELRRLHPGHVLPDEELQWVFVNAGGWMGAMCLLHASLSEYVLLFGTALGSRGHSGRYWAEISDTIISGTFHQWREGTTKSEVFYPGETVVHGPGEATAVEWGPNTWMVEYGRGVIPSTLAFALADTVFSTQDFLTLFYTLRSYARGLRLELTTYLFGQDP
Test: Flow cytometry displacement of sigma-1 fluorescent ligand LM1 in human pancreatic cancer cells
Format: binding
Conditions: IC50 at sigma-1 receptor by flow cytometry (discussion), PANC-1 and MiaPaCa2 cells
pIC50: −log10 of the molar value.
quantity measured: pIC50

pIC50 measured on CN(C)C(=S)N/N=C1\C(=O)N(CCCCN2CCC3(CC2)OCc2ccccc23)c2ccccc21 = ~7.30

* * *

System: MiaPaCa2 cells
Assay: Cell viability MTT assay 48 h
Type: cell-based
Conditions: Homo sapiens, MIA PaCa-2; MTT 48 h; read-out: Activity EC50 ± SEM, MiaPaCa2
quantity measured: pEC50
In plain terms, pEC50 is the concentration in mol/L turned into minus its base-10 logarithm.

pEC50 measured on CN(C)C(=S)N/N=C1\C(=O)N(CCCCN2CCC3(CC2)OCc2ccccc23)c2ccccc21 [FA4] = 5.70

* * *

Tested on: PANC-1 cells
Test: Cell viability MTT assay 48 h
Type: cell-based
Conditions: Homo sapiens, MTT 48 h, read-out: Activity EC50 ± SEM, PANC-1
quantity measured: EC50 (µM)
Enter your answer as a number in µM; do not include the unit.

EC50 measured on CN(C)C(=S)N/N=C1\C(=O)N(CCCCN2CCC3(CC2)OCc2ccccc23)c2ccccc21 = 3.01
